Target: UniProtKB P00760
Sequence (P00760 1-246): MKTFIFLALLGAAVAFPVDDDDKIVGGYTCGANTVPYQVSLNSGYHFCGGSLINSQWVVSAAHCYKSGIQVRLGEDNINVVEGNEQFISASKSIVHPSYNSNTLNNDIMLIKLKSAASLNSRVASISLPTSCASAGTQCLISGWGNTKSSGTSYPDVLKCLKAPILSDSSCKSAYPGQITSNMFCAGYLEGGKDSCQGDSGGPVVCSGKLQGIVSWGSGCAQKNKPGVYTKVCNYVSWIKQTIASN
Structures can show the parent of a compound that is named as a salt.
Quantity name: Ki

Please look up its Ki: N=C(N)Nc1ccc(CNC(=O)[C@@H](CO)c2ccccc2)cc1 (racemic) [ST-390, Hydrochloride]
> 1000 µM
